Test system: Yersinia pseudotuberculosis
test-method-notes: Antimicrobial activity against Yersinia pseudotuberculosis ATCC 911after 18 hrs by well diffusion method
Format: functional
Calls of active or inactive are those of the source. The calls are words filed in the database; no cut-off is given here.
outcome-measure: inhibition zone (IZ)

Before answering, review these 4 worked examples.
- smiles-record: "S=c1[nH]nc(-c2ccncc2)o1"
  inhibition zone (IZ): "inactive"
- smiles-record: "Fc1ccc(/C=N/n2c(-c3ccncc3)n[nH]c2=S)cc1"
  inhibition zone (IZ): "inactive"
- smiles-record: "CN1CCN(Cn2nc(-c3ccncc3)n(N)c2=S)CC1"
  inhibition zone (IZ): "24 mm"
- smiles-record: "Nn1c(S)nnc1-c1ccncc1"
  inhibition zone (IZ): "30 mm"

Item: `S=c1oc(-c2ccncc2)nn1CNCCN1CCOCC1` Test system: Yersinia pseudotuberculosis Read-out: inhibition zone (IZ) Value: ?
13 mm

Check `CN1CCN(Cn2nc(-c3ccncc3)oc2=S)CC1` too.
15 mm

Check `S=c1[nH]nc(-c2ccncc2)n1/N=C/c1c[nH]c2ccccc12` too.
inactive

Check `Nn1c(-c2ccncc2)nn(CN2CCOCC2)c1=S` too.
13 mm

Check `Nn1c(-c2ccncc2)nn(CNCCN2CCOCC2)c1=S` too.
inactive

Check `CN1CCN(Cn2nc(-c3ccncc3)n(/N=C/c3ccc(F)cc3)c2=S)CC1` too.
inactive

Check `CCSc1nnc(-c2ccncc2)o1` too.
22 mm
